Target: Acetylcholinesterase (Homo sapiens)
Sequence (P22303 whole entry): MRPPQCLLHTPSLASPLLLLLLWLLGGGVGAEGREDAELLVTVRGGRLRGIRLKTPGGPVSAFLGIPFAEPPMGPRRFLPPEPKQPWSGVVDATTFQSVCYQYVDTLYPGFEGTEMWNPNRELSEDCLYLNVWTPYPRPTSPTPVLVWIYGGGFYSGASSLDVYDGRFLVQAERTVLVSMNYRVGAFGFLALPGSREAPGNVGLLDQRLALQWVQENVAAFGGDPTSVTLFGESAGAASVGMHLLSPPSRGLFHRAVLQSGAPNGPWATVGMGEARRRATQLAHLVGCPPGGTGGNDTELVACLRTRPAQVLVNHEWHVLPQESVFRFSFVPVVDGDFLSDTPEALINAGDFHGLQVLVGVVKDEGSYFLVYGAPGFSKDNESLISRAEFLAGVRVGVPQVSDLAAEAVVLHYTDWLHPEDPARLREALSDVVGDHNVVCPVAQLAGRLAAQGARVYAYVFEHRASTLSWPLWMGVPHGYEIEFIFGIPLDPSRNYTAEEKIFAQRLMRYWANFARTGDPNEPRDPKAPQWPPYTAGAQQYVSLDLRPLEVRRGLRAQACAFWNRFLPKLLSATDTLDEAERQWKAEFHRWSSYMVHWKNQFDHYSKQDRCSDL
Hi there, I'd appreciate the recorded pIC50 for every entry that follows.
Give bare numbers, as −log10 of the molar value.

Solved entries (count: 3):
Cc1ccc(C(=O)c2coc3ccc(OCC(=O)Nc4ccc(Cl)cc4)cc23)cc1 : 4.28
O=C(COc1ccc2occ(C(=O)c3ccccc3)c2c1)Nc1ccccc1 : 5.68
O=C(COc1ccc(O)c(-c2cn[nH]c2-c2ccccc2)c1)Nc1ccc(Cl)cc1 : 4.39

Kindly give each listed record's pIC50.
1. Cc1ccc(NC(=O)COc2ccc(O)c(-c3cn[nH]c3-c3ccc(Cl)cc3)c2)cc1
2. O=C(COc1ccc2occ(C(=O)c3ccc(Cl)cc3)c2c1)Nc1ccc(Cl)cc1
3. Cc1ccc(NC(=O)COc2ccc3occ(C(=O)c4ccc(C)cc4)c3c2)cc1
4. Cc1ccc(C(=O)c2coc3ccc(OCC(=O)Nc4ccccc4)cc23)cc1

Found:
1: 4.36; 2: 4.74; 3: 4.23; 4: 5.49

Kindly give each listed record's pIC50.
1. Cc1ccc(NC(=O)COc2ccc(O)c(-c3cn[nH]c3-c3ccccc3)c2)cc1
2. Cc1ccc(-c2[nH]ncc2-c2cc(OCC(=O)Nc3ccccc3)ccc2O)cc1
3. Cc1ccc(-c2[nH]ncc2-c2cc(OCC(=O)Nc3ccc(Cl)cc3)ccc2O)cc1
4. Cc1ccc(NC(=O)COc2ccc3occ(C(=O)c4ccc(Cl)cc4)c3c2)cc1
5. O=C(COc1ccc(O)c(-c2cn[nH]c2-c2ccc(Cl)cc2)c1)Nc1ccc(Cl)cc1
6. O=C(COc1ccc2occ(C(=O)c3ccccc3)c2c1)Nc1ccc(Cl)cc1
7. Cc1ccc(NC(=O)COc2ccc3occ(C(=O)c4ccccc4)c3c2)cc1

Found:
1. 4.53
2. 4.39
3. 5.54
4. 4.92
5. 3.92
6. 4.39
7. 4.67

Kindly give each listed record's pIC50.
1. O=C(COc1ccc(O)c(-c2cn[nH]c2-c2ccccc2)c1)Nc1ccccc1
2. O=C(COc1ccc2occ(C(=O)c3ccc(Cl)cc3)c2c1)Nc1ccccc1
3. O=C(COc1ccc(O)c(-c2cn[nH]c2-c2ccc(Cl)cc2)c1)Nc1ccccc1

Found:
[4.30, 6.02, 4.86]

Recorded pIC50 (compound `Cc1ccc(NC(=O)COc2ccc(O)c(-c3cn[nH]c3-c3ccc(C)cc3)c2)cc1` ): 5.32

Data provenance: ChEMBL document CHEMBL6074692
